Target: Cbl-b (36-427 aa truncated form, N-terminus Avi-tag) (Homo sapiens (Human), UniProt Q13191)
Sequence (Q13191 36-427): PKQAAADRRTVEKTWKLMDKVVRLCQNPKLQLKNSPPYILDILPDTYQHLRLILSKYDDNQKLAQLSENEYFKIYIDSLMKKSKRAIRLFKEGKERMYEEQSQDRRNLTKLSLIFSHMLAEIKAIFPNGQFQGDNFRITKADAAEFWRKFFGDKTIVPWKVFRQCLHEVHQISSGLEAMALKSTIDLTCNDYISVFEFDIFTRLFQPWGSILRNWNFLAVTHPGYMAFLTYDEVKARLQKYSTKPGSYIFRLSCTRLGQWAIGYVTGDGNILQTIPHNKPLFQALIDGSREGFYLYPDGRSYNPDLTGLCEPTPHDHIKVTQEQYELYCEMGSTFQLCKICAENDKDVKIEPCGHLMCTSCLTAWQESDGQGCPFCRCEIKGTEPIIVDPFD
Test: Cbl-b binding: TR-FRET displacement of BODIPY-FL probe
reported endpoint: IC50

molecule	result
Cn1cnnc1CC1(c2cc(NCCC#N)nc(N3Cc4c(cc(CN5CC6(CCC6O)C5)cc4C(F)(F)F)C3=O)c2)COC1 (centres unmarked)	5.01 to 20 nM
CCNc1cc(C2(Cc3nncn3C)COC2)cc(N2Cc3c(cc(C(CSC)N4CCC[C@H](C)C4)cc3C(F)(F)F)C2=O)n1.O=C(O)C(F)(F)F (some centres unmarked)	20 to 100 nM
CCSc1cc(C2(Cc3nncn3C)COC2)cc(N2Cc3c(C(N)=O)cc(CN4CCC[C@H](C)C4)cc3C2=O)n1	5.01 to 20 nM
CSc1cc(CN2CCC[C@H](C)C2)cc2c1CN(c1cc([C@]3(c4nncn4C)C[C@H](C)C3)cc(N)n1)C2=O	5.01 to 20 nM
CCNc1cc(C2(Cc3nncn3C)COC2)cc(N2Cc3cc(CN4CCC[C@H](C)C4)sc3C2=O)n1	20 to 100 nM
Cn1cnnc1CC1(c2cccc(NC(=O)c3cc(CN4CC[C@H](OCCCCCCNC(=O)CCN5C(=O)C=CC5=O)C4)cc(C4CC4)n3)c2)COC1	5.01 to 20 nM
C[C@H]1CCCN(Cc2cc3c(c(C(F)(F)F)c2)CN(c2cc(C4(Cc5nncn5C)COC4)cc(NCC#N)n2)C3=O)C1	1 to 5 nM
CC1CC(c2cccc(N3Cc4c(cc(C(CO)N5CCC[C@H](C)C5)cc4C(F)(F)F)C3=O)c2)(c2nncn2C)C1 (some centres unmarked)	1 to 5 nM
C[C@H]1CCCN(Cc2cc3c(c(C(F)(F)F)c2)CN(c2cc(C4(Cc5nncn5C)COC4)cc(SCCC(=O)O)n2)C3=O)C1	100 to 1000 nM
CSc1cc(CN2CCC[C@H](C)C2)cc2c1CN(c1cccc([C@]3(c4nncn4C)C[C@H](C)C3)c1)C2=O	1 to 5 nM
CCNc1cc(C(CO)(CCl)Cc2nncn2C)cc(N2Cc3c(cc(CN4CCC[C@H](C)C4)cc3C(F)(F)F)C2=O)n1 (some centres unmarked)	20 to 100 nM
